testTarget: SIRT1 (Homo sapiens, UniProt Q96EB6)
Sequence (Q96EB6 1-747): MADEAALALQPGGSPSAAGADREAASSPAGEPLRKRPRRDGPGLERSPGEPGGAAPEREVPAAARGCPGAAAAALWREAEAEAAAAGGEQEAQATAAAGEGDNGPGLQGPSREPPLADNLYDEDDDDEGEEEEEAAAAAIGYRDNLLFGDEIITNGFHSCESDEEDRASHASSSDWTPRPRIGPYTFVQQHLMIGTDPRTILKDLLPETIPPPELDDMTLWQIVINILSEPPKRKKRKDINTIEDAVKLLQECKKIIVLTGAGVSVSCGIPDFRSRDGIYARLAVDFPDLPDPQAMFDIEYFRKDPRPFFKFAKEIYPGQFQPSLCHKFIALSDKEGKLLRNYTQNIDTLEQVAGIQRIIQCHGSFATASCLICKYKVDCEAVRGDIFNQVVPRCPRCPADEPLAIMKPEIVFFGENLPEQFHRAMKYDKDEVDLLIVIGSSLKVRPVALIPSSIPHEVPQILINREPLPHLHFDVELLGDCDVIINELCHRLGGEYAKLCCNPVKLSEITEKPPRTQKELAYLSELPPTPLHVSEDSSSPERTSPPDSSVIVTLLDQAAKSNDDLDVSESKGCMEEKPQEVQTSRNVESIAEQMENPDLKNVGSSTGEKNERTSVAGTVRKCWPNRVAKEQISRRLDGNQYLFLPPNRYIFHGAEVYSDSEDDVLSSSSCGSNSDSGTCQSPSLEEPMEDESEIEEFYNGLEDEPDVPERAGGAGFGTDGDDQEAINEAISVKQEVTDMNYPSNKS
measurementDescription: Mass spectrometry based SIRT1 deacetylation (activation) assay
Type: biochemical
conditionDescription: 0.5 μM peptide substrate, 120 μM βNAD+, 10 nM SIRT1, 25 min at 25° C.
endpointLabel: EC1.5

compound: CCN(CCN(C)C)c1cc(C(=O)Nc2ccccc2-c2nnc(C(=O)NC)s2)nc(-c2ccccc2)n1 [Compound 86]
EC1.5: A (EC1.5≦1 uM)

compound: CN(C)CCNc1cc(C(=O)Nc2ccccc2C(=O)Nc2ccccc2S(C)(=O)=O)nc(-c2ccccc2)n1 [Compound 163]
EC1.5: B (EC1.5>1 and ≦10 uM)

compound: Cc1nnc(-c2ccccc2NC(=O)c2cc(NCCN(C)C)nc(-c3ccccc3)n2)o1 [Compound 20]
EC1.5: B (EC1.5>1 and ≦10 uM)

compound: CCCCc1nnc(-c2ccccc2NC(=O)c2cc(N(CC)CCN(C)C)nc(-c3ccccc3)n2)s1 [Compound 62]
EC1.5: A (EC1.5≦1 uM)

compound: CCN(CCN(C)C)c1cc(C(=O)Nc2ccccc2-c2nnc(C(=O)N3CCOCC3)s2)nc(-c2ccccc2)n1 [Compound 87]
EC1.5: A (EC1.5≦1 uM)

compound: O=C(Nc1ccccc1-c1nnc(N2CCOCC2)s1)c1cc(N2CCOCC2)nc(-c2ccccc2)n1 [Compound 100]
EC1.5: A (EC1.5≦1 uM)

compound: CNCCN(C)c1cc(C(=O)Nc2ccccc2-c2nnc(C3CCC3)s2)nc(-c2ccccc2)n1 [Compound 47]
EC1.5: A (EC1.5≦1 uM)

compound: CN1CCN(c2cc(C(=O)Nc3ccccc3-c3nnc(C(=O)N4CCOCC4)s3)nc(-c3ccccc3)n2)CC1=O [Compound 88]
EC1.5: A (EC1.5≦1 uM)

compound: Cc1nnc(-c2ccccc2NC(=O)c2cc(NCCN(C)C)nc(-c3ccccc3)n2)s1 [Compound 21]
EC1.5: A (EC1.5≦1 uM)

compound: CCN(CCN(C)C)c1cc(C(=O)Nc2ccccc2-c2ncc(C(C)(C)C)s2)nc(-c2ccccc2)n1 [Compound 63]
EC1.5: A (EC1.5≦1 uM)

Q: Reported EC1.5, compound O=C(Nc1ccccc1-c1nncs1)c1cc(OC[C@@H](O)CO)nc(-c2ccccc2)n1 [Compound 110] : ____
A: A (EC1.5≦1 uM)

Q: Reported EC1.5, compound CN(C)CCNc1cc(C(=O)Nc2ccccc2-c2ncc(-c3ccccc3)o2)nc(-c2ccccc2)n1 [Compound 38] : ____
A: A (EC1.5≦1 uM)

Origin of the recorded values: patent US20110039847A1
